Every entry's value here was drawn from patent US20100160443A1.

Experiment: Plasma drug concentration and pharmacokinetics after i.p. administration to SNL operated rats
Format: in vivo, rat
Settings: rat, ip; DID 40 mg kg^−1 i.p., plasma, SNL operated rats
Result type: half-life (h)

[[record]]
compound = "CC(C)C(C(N)=O)C(C)C [DID, diisopropylacetamide]"
measure_unit = "h"
reported_result = 1.5


====

Assay: Plasma drug concentration and pharmacokinetics after i.p. administration to SNL operated rats
Assay type: in vivo, rat
Details: rat, plasma, ip, 300 mg/kg
Result type: MRT (h)

[[record]]
molecule = "CCCC(CCC)C(=O)O [VPA, Valproic acid, reference compound]"
measure_unit = "h"
reported_result = 5.8

